// provenance: the supplement of paper PMC8149375

System: CAKI-1
Experiment: AUC of dose-response viability curve, drug alone (arbitrary (AUC of normalised viability)); higher = less growth inhibition
Settings: treatment: drug alone; 5 days
For each of the molecules below, state its AUC of dose-response viability curve.

Recorded AUC of dose-response viability curve for "CC(C)(O)CC(=O)NCCn1ccc2ncnc(Nc3ccc(Oc4cccc(C(F)(F)F)c4)c(Cl)c3)c21" , please?
3.14

Recorded AUC of dose-response viability curve for "CCC[C@H](NC(=O)/C(C#N)=C/c1cccc(Br)n1)c1ccccc1" , please?
3.18

Recorded AUC of dose-response viability curve for O=C(NOCC(O)CO)c1cc(Br)c(F)c(F)c1Nc1ccc(I)cc1F (stereo not drawn) , please?
2.32

Recorded AUC of dose-response viability curve for CO[C@H]1C[C@@H]2CC[C@@H](C)[C@@](O)(O2)C(=O)C(=O)N2CCCC[C@H]2C(=O)O[C@H]([C@H](C)C[C@@H]2CC[C@@H](OCCO)[C@H](OC)C2)CC(=O)[C@H](C)/C=C(\C)[C@@H](O)[C@@H](OC)C(=O)[C@H](C)C[C@H](C)/C=C/C=C/C=C/1C [Everolimus (RAD001)] , please?
2.14

Recorded AUC of dose-response viability curve for "CN(C)C/C=C/C(=O)Nc1cc2c(Nc3ccc(F)c(Cl)c3)ncnc2cc1O[C@H]1CCOC1" , please?
2.18

Recorded AUC of dose-response viability curve for "Cc1[nH]c(/C=C2\C(=O)Nc3ccc(S(=O)(=O)Cc4c(Cl)cccc4Cl)cc32)c(C)c1C(=O)N1CCC[C@@H]1CN1CCCC1" , please?
3.17

Recorded AUC of dose-response viability curve for "O=C1Nc2ccccc2/C1=C1/Nc2ccccc2C1=O" , please?
2.94

Recorded AUC of dose-response viability curve for "CNC(=O)c1ccccc1Nc1nc(Nc2ccc(N3CCOCC3)cc2OC)ncc1Cl" , please?
2.64

Recorded AUC of dose-response viability curve for "C[C@@H]1COC(Nc2ccc3ncnc(Nc4ccc(OCc5nccs5)c(Cl)c4)c3c2)=N1" , please?
3.13

Recorded AUC of dose-response viability curve for "O=c1[nH]c2ccc(Cl)cc2c(N[C@@H]2CN3CCC2CC3)c1-c1nc2ccccc2[nH]1" , please?
1.73

Recorded AUC of dose-response viability curve for COc1cc(Nc2c(C#N)cnc3cc(OCCCN4CCN(C)CC4)c(OC)cc23)c(Cl)cc1Cl [Bosutinib (SKI-606)] , please?
2.38

Recorded AUC of dose-response viability curve for "O=C(O)[C@]1(Cc2cccc(Nc3nccs3)n2)CC[C@@H](Oc2cccc(Cl)c2F)CC1" , please?
2.88

Recorded AUC of dose-response viability curve for "C=CC(=O)Nc1cccc(Oc2nc(Nc3ccc(N4CCN(C)CC4)cc3OC)ncc2Cl)c1" , please?
2.96
